B1: Spacer of UHRF1 (residues 587–674) [human] / TTD of UHRF1 (residues 134–285) [human] (parent)
chain 1: PGPWTKEGKDRIKKLGLTMQYPEGYLEALANREREKENSKREEEEQQEGGFASPRTGKGKWKRKSAGGGPSRAGSPRRTSKKTKVEPY
chain 2: LYKVNEYVDARDTNMGAWFEAQVVRVTRKAPSRDEPCSSTSRPALEEDVIYHVKYDDYPENGVVQMNSRDVRARARTIIKWQDLEVGQVVMLNYNPDNPKERGFWYDAEISRKRETRTARELYANVVLGDDSLNDCRIIFVDEVFKIERPGE

- Variants of: B1
- Measurement Protocol: ITC
- Assay Conditions: with TTD of UHRF1 (residues 134–285) [human]; Cell: Spacer; Sy: TTD
Measured Endpoint: pKd
// pKd: -log10(molar conc.)

// pKd value for chain 1 PGPWTKEGKDRIKKLGLTMQYPEGYLEALANREREKENSKREEEEQQEGGFASPRTGKGKWKAKSAGGGPSRAGSPRRTSKKTKVEPY : 4.67

// pKd value for chain 1 PGPWTKEGKDRIKKLGLTMQYPEGYLEALANREREKENSKREEEEQQEGGFADPRTGKGKWKRKSAGGGPSRAGSPRRTSKKTKVEPY : 5.94

// pKd value for chain 1 PGPWTKEGKDRIKKLGLTMQYPEGYLEALANREREKENSKREEEEQQEGGFASPRTGKGKWDRKSAGGGPSRAGSPRRTSKKTKVEPY : 5.23

// pKd value for chain 1 PGPWTKEGKDRIKKLGLTMQYPEGYLEALANREREKENSKREEEEQQEGGFASPRTGKGKWKRKSAGGGPSRAGSPRRTDKKTKVEPY : 5.90
